# MEASUREMENT TARGET: U1A M51A:N15V (UniProt P09012 10-89, N15V;M51A)
# Sequence (P09012 10-89 N15V/M51A): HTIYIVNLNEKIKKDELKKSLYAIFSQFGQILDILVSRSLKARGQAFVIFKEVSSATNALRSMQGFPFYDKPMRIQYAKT
# ASSAY: fluorescence polarization
OUTCOME MEASURE: Kd (µM)
One number for each entry, in µM.

What measured Kd goes with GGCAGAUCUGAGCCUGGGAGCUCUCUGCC (structured_RNA) [TAR RNA] ?
46

Origin of values: paper PMC4414246
